Measured fold change of Tryptamine concentration, listed per entry.
tested on: Ruminococcus gnavus DSM 108212; assay: fold change of Tryptamine concentration vs plate DMSO controls (fold change (ratio)); higher = more amine produced, active = hit call of the paper (significant change in both replicates, either direction); conditions: incubation time: 27 h, anaerobic, 37 °C
Where a name gives a salt, the structure may show the parent alone.
In your answer, state the number alone without any accompanying words.

Completed entries (count: 10):
compound: CCN(CCO)CCCC(C)Nc1ccnc2cc(Cl)ccc12 (stereo not given) [Hydroxychloroquine sulfate] (20 µM)
fold change of Tryptamine concentration: 0.991

compound: CC(C)(C)CC(C)(C)c1ccc(OCCOCC[N+](C)(C)Cc2ccccc2)cc1 [Benzethonium chloride] (20 µM)
fold change of Tryptamine concentration: 0.866

compound: Cc1ccc(/C(=C\CN2CCCC2)c2ccccn2)cc1 [Triprolidine hydrochloride] (20 µM)
fold change of Tryptamine concentration: 1.01

compound: CN(Cc1ccc(C(C)(C)C)cc1)Cc1cccc2ccccc12 [Butenafine hydrochloride] (20 µM)
fold change of Tryptamine concentration: 0.96

compound: CNCCc1ccccn1 [Betahistine mesylate] (20 µM)
fold change of Tryptamine concentration: 1.02

compound: CCCCNc1ccc(C(=O)OCCN(C)C)cc1 [Tetracaine hydrochloride] (20 µM)
fold change of Tryptamine concentration: 1.07

compound: COc1cccc2c1C(=O)c1c(O)c3c(c(O)c1C2=O)C[C@@](O)(C(=O)CO)C[C@@H]3O[C@H]1C[C@H](N)[C@H](O)[C@H](C)O1 [Doxorubicin hydrochloride] (20 µM)
fold change of Tryptamine concentration: 0.963

compound: C[C@@H](O)[C@H]1C(=O)N2C(C(=O)O)=C(S[C@@H]3CN[C@H](CNS(N)(=O)=O)C3)[C@H](C)[C@H]12 [Doripenem monohydrate] (20 µM)
fold change of Tryptamine concentration: 0.0858

compound: CCCc1nn(C)c2c(=O)[nH]c(-c3cc(S(=O)(=O)N4CCN(C)CC4)ccc3OCC)nc12 [Sildenafil] (20 µM)
fold change of Tryptamine concentration: 1.15

compound: C=CC1=C(C(=O)O)N2C(=O)[C@@H](NC(=O)/C(=N\O)c3csc(N)n3)[C@H]2SC1 [Cefdinir] (20 µM)
fold change of Tryptamine concentration: 0.04

Summary for this compound, CCCCCN(C)CCC(O)(P(=O)(O)O)P(=O)(O)O [Ibandronate sodium] (20 µM) : fold change of Tryptamine concentration is 0.934

What the record says about O=C(O)c1cccnc1Nc1cccc(C(F)(F)F)c1 [Niflumic acid] (20 µM) : fold change of Tryptamine concentration is 1.02

Note to self: fold change of Tryptamine concentration recorded for CC(=O)O[C@H]1C[C@@H]2CC[C@@H]3[C@H](CC[C@@]4(C)[C@H]3C[C@H]([N+]3(C)CCCCC3)[C@@H]4OC(C)=O)[C@@]2(C)C[C@@H]1N1CCCCC1 [Vecuronium bromide] (20 µM) was 0.967

Looking up COc1ccccc1OCC(O)CO (stereo not given) [Guaifenesin] (20 µM) , I found its fold change of Tryptamine concentration recorded as 1.05

Entry under test: C[N+]1(C)CCC(=C(c2ccccc2)c2ccccc2)CC1 [Diphemanil methylsulfate] (20 µM) . Its fold change of Tryptamine concentration was 1.01
